Experiment: Pharmacokinetic test in mice
Assay type: in vivo, ICR mice
Conditions: i.g. (10 mg/kg), relative to Control compound 1
readout.label: Fold change in brain-blood ratio relative to control compound
Output spec: single numeric token, no unit.

Recorded Fold change in brain-blood ratio relative to control compound, per entry:
[
  {
    "record.smiles": "CC=C1CN(S(=O)(=O)Nc2ccc(F)c(Oc3ccc4ncn(CCF)c(=O)c4c3)c2C#N)C1",
    "test.value": 3.5
  },
  {
    "record.smiles": "CC=C1CN(S(=O)(=O)Nc2ccc(F)c(Oc3ccc4ncn(CC(F)F)c(=O)c4c3)c2C#N)C1",
    "test.value": 10.5
  }
]

Now for the molecule whose Fold change in brain-blood ratio relative to control compound we want.
**Q:** Bench note: what Fold change in brain-blood ratio relative to control compound did N#Cc1c(NS(=O)(=O)N2CC(=CF)C2)ccc(F)c1Oc1ccc2ncn(CC(F)F)c(=O)c2c1 show?
**A:** 6.1

All values here come from patent EP4813985A1.
